target: human calcitonin receptor (CTR) and RAMP3 (AMY3) (Homo sapiens, UniProt O60896+P30988); test: Amylin Receptor cAMP Assay II; format: cell-based; details: COS-7/AMY3 cells, cAMP dynamic 2 kit, read-out: Amylin Receptor cAMP Stimulation Activity: EC50
Sequence (O60896 24-148, one chain of several): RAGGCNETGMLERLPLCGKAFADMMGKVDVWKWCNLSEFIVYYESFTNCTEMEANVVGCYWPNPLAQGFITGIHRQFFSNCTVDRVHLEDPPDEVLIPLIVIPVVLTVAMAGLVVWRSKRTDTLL
experimental-endpoint: EC50 (µM)

# molecule, EC50, µM
rows = [
    ("Cc1nnc(-c2c(CCC3CCOCC3)nc3c(c2-c2cc4ccnc(NCc5ccc(C#N)c(F)n5)c4s2)S(=O)(=O)CC3C(C)C)o1 (stereo not shown) [Compound 134]", 1.49),
    ("Cc1nnc(-c2c(CCC3CCOC3)nc3c(c2-c2cc4ncnc(N[C@@H]5CCc6ncccc65)c4s2)S(=O)(=O)CC3C(C)C)o1 (stereo partly shown) [Compound 99]", 1.9),
]

I: Cc1nnc(-c2c(CCC3CCOCC3)nc3c(c2-c2ccc4c(cnn4Cc4ccc(C#N)c(F)c4)c2)C(=O)N2CCOC[C@@H]32)o1 [Compound 105]
II: Cc1nnc(-c2c(CCC3CCCO3)nc3c(c2-c2cc4ncnc(N[C@@H]5CCc6ncccc65)c4s2)S(=O)(=O)CC3C(C)C)o1 (stereo partly shown) [Compound 100]
Incoming: Field: entry with larger EC50 (options I / II ). Give the label under which the chosen entry appears.
Outgoing: II

###

target: human calcitonin receptor (CTR) and RAMP3 (AMY3) (Homo sapiens, UniProt O60896+P30988); experiment: Amylin Receptor cAMP Assay II; format: cell-based; details: COS-7/AMY3 cells, cAMP dynamic 2 kit, read-out: Amylin Receptor cAMP Stimulation Activity: EC50
pEC50: −log10 of the molar value.
experimental-endpoint: pEC50

Sample answers from the record:
# molecule, pEC50
rows = [
    ("Cc1nnc(-c2c(CCC3CCCCO3)nc3c(c2-c2ccc(C(=O)NCc4ccc(F)c(F)c4)s2)C(=O)N2CCC[C@@H]32)o1 (stereo partly drawn)", 5.68),
    ("Cc1nnc(-c2c(CCC3CCOCC3)nc3c(c2-c2cc4ccnc(N[C@@H]5CCc6ncccc65)c4s2)S(=O)(=O)N2CCC[C@@H]32)o1", 6.49),
    ("COc1cccc2c1CC[C@H]2Nc1nccc2cc(-c3c4c(nc(CCc5ccc(F)cc5)c3-c3nnc[nH]3)[C@@H]3CCCN3C4=O)sc12", 7.89),
    ("Cc1cnc(-c2c(CCC3CCOCC3)nc3c(c2-c2ccc4c(c2)oc(=O)n4Cc2ccc(C#N)cn2)C(=O)N2CCC[C@@H]32)o1", 7.42),
    ("Cc1nnc(-c2c(CCC3CCOCC3)nc3c(c2-c2ccc4c(c2)oc(=O)n4C(C)c2ccc(C#N)c(F)c2)c(=O)n2n3CCC2)o1 (stereo not drawn)", 6.87),
    ("Cc1nnc(-c2c(CCC3CCOCC3)nc3c(c2-c2cc4ccnc(Cc5ccc(F)c(F)c5)c4s2)S(=O)(=O)CC3C(C)C)o1 (stereo not drawn)", 6.06),
]

A: Cc1nnc(-c2c(CCC3CCOCC3)nc3c(c2-c2cnc4c(ccn4Cc4ccc(C#N)c(F)c4)c2)C(=O)N[C@H]3C(C)C)o1
B: Cc1nnc(-c2c(CCC3CCOCC3)nc3c(c2-c2ccc4c(cnn4C(C)c4ccc(C#N)c(F)c4)c2)C(=O)N2CCOC[C@@H]32)o1 (stereo partly drawn)
C: Cc1cc(-c2c(CCC3CCOCC3)nc3c(c2-c2cc4ccnc(N[C@@H]5CCc6ncccc65)c4s2)S(=O)(=O)CC3C(C)C)ncn1 (stereo partly drawn)
Incoming: rank_up(items): orders items by reported pEC50 in ascending numerical order. Your answer should be the labels, listed in the requested order.
Outgoing: C, B, A

###

Molecular target: human calcitonin receptor (CTR) (Homo sapiens)
Sequence (P30988 25-474): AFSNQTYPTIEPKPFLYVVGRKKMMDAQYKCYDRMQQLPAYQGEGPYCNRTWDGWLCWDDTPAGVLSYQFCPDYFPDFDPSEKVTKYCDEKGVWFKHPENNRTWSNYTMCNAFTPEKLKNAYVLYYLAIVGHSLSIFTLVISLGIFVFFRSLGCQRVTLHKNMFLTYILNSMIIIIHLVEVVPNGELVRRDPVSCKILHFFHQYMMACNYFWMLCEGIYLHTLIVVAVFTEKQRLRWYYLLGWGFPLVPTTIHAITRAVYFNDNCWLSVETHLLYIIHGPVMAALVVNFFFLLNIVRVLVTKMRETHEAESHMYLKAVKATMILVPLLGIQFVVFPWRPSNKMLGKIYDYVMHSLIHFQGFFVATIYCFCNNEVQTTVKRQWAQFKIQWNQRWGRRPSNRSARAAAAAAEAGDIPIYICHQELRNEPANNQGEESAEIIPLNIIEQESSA
Assay: Calcitonin receptor (CTR) cAMP Assay
Settings: COS7-human CTR Clone #2 cells, cAMP dynamic 2 kit; read-out: Calcitonin Receptor cAMP Stimulation Activity: EC50
pEC50: −log10 of the molar value.
experimental-endpoint: pEC50

# molecule, measured-on, pEC50
records = [
    ("Cc1nnc(-c2c(CC(C)c3ccc(F)cc3)nc3c(c2-c2ccc(C(=O)NCc4ccc(F)c(F)c4)s2)C(=O)N2CCC[C@@H]32)o1 (stereo partly drawn)", "human calcitonin receptor (CTR) (Homo sapiens)", 7.82),
]

P: CC(C)C1CS(=O)(=O)c2c1nc(CCC1CCOCC1)c(-c1nnc[nH]1)c2-c1cc2ccnc(N[C@@H]3CCc4ncccc43)c2s1 (stereo partly drawn)
Q: Cc1cc(-c2c(CCC3CCOCC3)nc3c(c2-c2ccc4c(c2)oc(=O)n4Cc2ccc(C#N)cn2)S(=O)(=O)N2CCC[C@@H]32)ccn1
Incoming: Field: entry with larger pEC50 (options P / Q ). Give the label under which the chosen entry appears.
Outgoing: Q

###

molecular target: human calcitonin receptor (CTR) (Homo sapiens); test: Calcitonin receptor (CTR) cAMP Assay; details: COS7-human CTR Clone #2 cells, cAMP dynamic 2 kit; read-out: Calcitonin Receptor cAMP Stimulation Activity: EC50
experimental-endpoint: EC50 (nM)

# compound, EC50 / nM
records = [
    ("Cc1nnc(-c2c(CCC3C4COCC34)nc3c(c2-c2cc4ccnc(N[C@@H]5CCc6ncccc65)c4s2)S(=O)(=O)CC3C(C)C)o1 (stereo partly drawn) [Compound 115]", 14.5),
]

A: COc1ccnc(-c2c(CCC3CCOCC3)nc3c(c2-c2cc4ccnc(N[C@@H]5CCc6ncccc65)c4s2)S(=O)(=O)CC3C(C)C)n1 (stereo partly drawn) [Compound 146]
B: Cc1nnc(-c2c(CCC3CCOCC3)nc3c(c2-c2cc4ccnc(N[C@H](C)c5cncc(F)c5)c4s2)S(=O)(=O)CC3C(C)C)o1 (stereo partly drawn) [Compound 93]
Incoming: Compare reported EC50 values for A and B . Which is lower? Give the label under which the chosen entry appears.
Outgoing: A
(A: 4.06 nM, B: 42.2 nM)

###

target: human calcitonin receptor (CTR) and RAMP3 (AMY3) (Homo sapiens, UniProt O60896+P30988); assay: Amylin Receptor cAMP Assay I; assay type: cell-based; conditions: COS-7/AMY3 cells, cAMP Hi-range Kit, read-out: Amylin Receptor cAMP Stimulation Activity: EC50
pEC50: −log10 of the molar value.
experimental-endpoint: pEC50

A: Cc1nnc(-c2c(CCc3ccc(F)cc3)nc3c(c2-c2ccc(C(=O)NCc4ccc(F)c(F)c4)s2)C(=O)N2CCCC[C@@H]32)o1
B: Cc1ccc(CCc2nc3c(c(-c4ccc(C(=O)NCc5ccc(F)c(F)c5)s4)c2-c2nnc(C)o2)C(=O)N2CCC[C@@H]32)cn1
Incoming: Field: entry with larger pEC50 (options A / B ). Give the label under which the chosen entry appears.
Outgoing: A

###

molecular target: human calcitonin receptor (CTR) and RAMP3 (AMY3) (Homo sapiens, UniProt O60896+P30988); test: Amylin Receptor cAMP Assay I; type: cell-based; conditions: COS-7/AMY3 cells, cAMP Hi-range Kit, read-out: Amylin Receptor cAMP Stimulation Activity: EC50
experimental-endpoint: EC50 (nM)

Sample answers from the record:
# compound, EC50 [nM]
measured = [
    ("Cc1nnc(-c2c(CCC3CCOCC3)nc3c(c2-c2cc4ccnc(NCc5cccc(F)c5)c4s2)C(=O)N2CCC[C@@H]32)o1", 811),
    ("Cc1nnc(-c2c(CC(F)c3ccc(F)cc3)nc3c(c2-c2ccc(C(=O)N[C@@H]4CCc5ccccc54)s2)C(=O)N2CCC[C@@H]32)o1 (stereo partly drawn)", 126),
    ("Cc1nnc(-c2c(CCc3ccc(F)cc3)nc3c(c2-c2ccc(C(=O)NCc4ccc(F)c(F)c4)s2)S(=O)(=O)CC3C(C)C)o1 (stereo not drawn)", 25.3),
    ("Cc1nnc(-c2c(CCC3CCOCC3)nc3c(c2-c2cc4ccnc(N[C@@H]5CCc6ccc(F)cc65)c4s2)C(=O)N2CCC[C@@H]32)o1", 81.4),
    ("Cc1nc(C)c(-c2c(CCc3ccc(F)cc3)nc3c(c2-c2ccc(C(=O)NCc4ccc(F)c(F)c4)s2)C(=O)N2CCC[C@@H]32)o1", 20.5),
    ("CCc1nc2c(c(-c3ccc(C(=O)N[C@@H]4CCc5cc(F)ccc54)s3)c1-c1nnc(C)o1)C(=O)N1CCC[C@@H]21", 1810),
]

I: Cc1nnc(-c2c(CCc3ccc(F)cc3)nc3c(c2-c2ccc(C(=O)NCc4ccc(F)c(F)c4)s2)c(=O)n2n3CCC2)o1
II: Cc1nnc(-c2c(CC3(c4ccc(F)cc4)CC3)nc3c(c2-c2ccc(C(=O)NCc4ccc(F)c(F)c4)s2)C(=O)N2CCC[C@@H]32)o1
III: Cc1cnc(-c2c(CCc3ccc(F)cc3)nc3c(c2-c2ccc(C(=O)NCc4ccc(F)c(F)c4)s2)C(=O)N2CCC[C@@H]32)o1
Incoming: rank_up(items): orders items by reported EC50 in ascending numerical order. Your answer should be the labels, listed in the requested order.
Outgoing: III, I, II

I: Cc1nnc(-c2c(CCc3ccc(F)cc3)nc3c(c2-c2ccc(C(=O)NC4CC(O)c5ccccc54)s2)C(=O)N2CCC[C@@H]32)o1 (stereo partly drawn)
II: Cc1nnc(-c2c(CCC3CCOC(C)(C)C3)nc3c(c2-c2ccc(C(=O)NCc4ccc(F)c(F)c4)s2)C(=O)N2CCC[C@@H]32)o1 (stereo partly drawn)
III: Cc1cnc(-c2c(CCc3ccc(F)cc3)nc3c(c2-c2ccc(C(=O)NCc4ccc(F)c(F)c4)s2)S(=O)(=O)N2CCC[C@@H]32)o1
Incoming: rank_up(items): orders items by reported EC50 in ascending numerical order. Your answer should be the labels, listed in the requested order.
Outgoing: I, III, II
(I: 48.1 nM, III: 80 nM, II: 975 nM)

P: Cc1nnc(-c2c(CCc3ccc(F)cc3)nc3c(c2-c2cc4ccnc(NCc5ccc(F)c(F)c5)c4s2)C(=O)N2CCCC32O)o1 (stereo not drawn)
Q: COc1cccc2c1CC[C@H]2NC(=O)c1ccc(-c2c3c(nc(CCc4ccc(F)cc4)c2-c2nnc(C)o2)[C@H](C(C)C)NC3=O)s1
R: Cc1cnc(-c2c(CCC3CCOCC3)nc3c(c2-c2ccc(C(=O)NCc4ccc(F)c(F)c4)s2)C(=O)N2CCC[C@@H]32)o1
Incoming: rank_up(items): orders items by reported EC50 in ascending numerical order. Your answer should be the labels, listed in the requested order.
Outgoing: P, Q, R
